src = patent US20220010021A1

Target: T1, human beta-Klotho (KLB) (human, UniProt Q86Z14 53-997);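 also: Anti-KLB antibodies captured on anti-human Fc CM5 chip, KLB injected as analyte, 180 s association and 1800 s dissociation, fitted to 1:1 binding model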
T1 construct: bought protein; also called human KLB
T1 sequence (looked up): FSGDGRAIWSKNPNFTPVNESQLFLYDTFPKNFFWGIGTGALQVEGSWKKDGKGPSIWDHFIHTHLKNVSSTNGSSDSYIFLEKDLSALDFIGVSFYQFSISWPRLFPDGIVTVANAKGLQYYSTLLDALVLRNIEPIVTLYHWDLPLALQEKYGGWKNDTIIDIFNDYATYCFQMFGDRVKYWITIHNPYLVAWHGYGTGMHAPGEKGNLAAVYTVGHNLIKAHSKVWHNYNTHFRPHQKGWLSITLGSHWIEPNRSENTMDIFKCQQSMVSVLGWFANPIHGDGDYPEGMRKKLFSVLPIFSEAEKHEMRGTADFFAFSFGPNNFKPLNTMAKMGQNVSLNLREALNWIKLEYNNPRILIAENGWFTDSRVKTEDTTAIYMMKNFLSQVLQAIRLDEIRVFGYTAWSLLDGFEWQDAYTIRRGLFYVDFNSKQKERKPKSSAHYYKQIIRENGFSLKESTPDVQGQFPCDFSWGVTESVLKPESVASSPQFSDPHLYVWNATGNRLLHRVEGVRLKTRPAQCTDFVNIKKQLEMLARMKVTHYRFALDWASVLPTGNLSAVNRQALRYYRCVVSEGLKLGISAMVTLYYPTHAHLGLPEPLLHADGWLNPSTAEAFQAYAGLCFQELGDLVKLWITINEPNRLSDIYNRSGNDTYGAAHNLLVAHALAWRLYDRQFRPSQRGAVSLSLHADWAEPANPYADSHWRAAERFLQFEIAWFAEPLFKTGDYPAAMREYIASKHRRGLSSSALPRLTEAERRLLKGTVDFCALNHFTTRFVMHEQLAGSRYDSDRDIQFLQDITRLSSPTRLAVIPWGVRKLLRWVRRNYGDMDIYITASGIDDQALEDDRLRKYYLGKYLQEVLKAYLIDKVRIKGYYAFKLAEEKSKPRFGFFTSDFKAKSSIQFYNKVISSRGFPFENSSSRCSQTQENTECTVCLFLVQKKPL
Assay: SPR

[
  {
    "Binder": "Ab0306 (antibody, IgG4, V domains shown, IgG4 PE) VH: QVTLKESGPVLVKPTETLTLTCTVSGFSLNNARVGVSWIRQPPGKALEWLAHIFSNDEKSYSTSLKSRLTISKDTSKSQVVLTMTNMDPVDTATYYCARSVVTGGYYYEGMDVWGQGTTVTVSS VL: SYVLTQPPSVSVAPGQTARITCGGSNIGSESVHWYQQKPGQAPVLVVYDDSDRPSGIPERFSGSNSGNTATLTISRVEAGDEADYYCQVWDGESDHVVFGGGTKLTVLG",
    "koff / s⁻¹": 0.000288
  },
  {
    "Binder": "Ab0360 (antibody, IgG4, V domains shown, IgG4 PE) VH: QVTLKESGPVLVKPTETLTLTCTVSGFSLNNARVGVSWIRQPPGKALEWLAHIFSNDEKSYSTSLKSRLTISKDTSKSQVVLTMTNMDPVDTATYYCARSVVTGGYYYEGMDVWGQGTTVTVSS VL: SYVLTQPPSVSVAPGQTARITCGGSNIGSESVHWYQQKPGQAPVLVVYEHSDRPSGIPERFSGSNSGNTATLTISRVEAGDEADYYCQVWEGSSDHVVFGGGTKLTVLG",
    "koff / s⁻¹": 0.00192
  },
  {
    "Binder": "Ab0361 (antibody, IgG4, V domains shown, IgG4 PE) VH: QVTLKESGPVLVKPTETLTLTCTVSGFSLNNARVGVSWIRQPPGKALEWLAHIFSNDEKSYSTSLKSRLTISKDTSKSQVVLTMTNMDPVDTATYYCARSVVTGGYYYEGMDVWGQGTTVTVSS VL: SYVLTQPPSVSVAPGQTARITCGGSNIGSESVHWYQQKPGQAPVLVVYESSDRPSGIPERFSGSNSGNTATLTISRVEAGDEADYYCQVWEGSSDHVVFGGGTKLTVLG",
    "koff / s⁻¹": 0.00163
  }
]
